experiment: Half life in human plasma by LC-MS/MS analysis; format: ADME, cell-free
valueKind: half-life

Given CCCOC(=O)c1ccc(F)c(NC(=O)c2cccc(-c3cc(C(=O)Nc4ccncc4F)ccc3CN)c2)c1 , state its recorded half-life.
< 5 min

# lookup: half-life of NCc1ccc(C(=O)Nc2ccncc2F)cc1-c1cccc(C(=O)Nc2ccccc2)c1
> 120 min

Any idea what half-life was measured for CC(C)OC(=O)c1cccc(NC(=O)c2cccc(-c3cc(C(=O)Nc4ccncc4F)ccc3CN)c2)c1 ?
34 min

Query: half-life; subject: COC(=O)c1cccc(NC(=O)c2cccc(-c3cc(C(=O)Nc4ccncc4F)ccc3CN)c2)c1
< 5 min

Item under review: NCc1ccc(C(=O)Nc2ccncc2F)cc1-c1cccc(C(=O)Nc2cccc(C(=O)O)c2F)c1 . Reported half-life?
> 120 min

half-life lookup needed for CCCCOC(=O)c1cccc(NC(=O)c2cccc(-c3cc(C(=O)Nc4ccncc4F)ccc3CN)c2)c1 , thanks.
< 5 min

Which half-life reading was recorded for the compound NCc1ccc(C(=O)Nc2ccncc2F)cc1-c1cccc(NC(=O)c2cc(C(=O)O)ccc2F)c1 ?
> 120 min

Give its half-life value. Item: NCc1ccc(C(=O)Nc2ccncc2F)cc1-c1cccc(C(=O)Nc2ccc(CC(=O)OC3CCCC3)cc2)c1
7 min

If you can, please state the reported half-life value of NCc1ccc(C(=O)Nc2ccncc2F)cc1-c1cccc(C(=O)Nc2cc(C(=O)O)ccc2F)c1 .
> 120 min

* * *

tested on: Oryctolagus cuniculus; experiment: Cmax in NewZealand white rabbit plasma assessed as 4-{[(2'-(Aminomethyl)-5'-{[(3-fluoropyridin-4-yl)amino]-carbonyl}biphenyl-3-yl)carbonyl]amino}benzoic Acid at 0.1 mg/kg, iv after 10 mins by LC-MS/MS analysis; type: ADME, organism-based; design: dose 0.1 mg/kg, route intravenous; conditions: in vivo
valueKind: Cmax (nM)
Write the value in nM as a bare number.

Please tell me: Cmax of COC(=O)c1ccc(NC(=O)c2cccc(-c3cc(C(=O)Nc4ccncc4F)ccc3CN)c2)cc1 , system Oryctolagus cuniculus?
255

* * *

target: Rho-associated protein kinase 2 (Homo sapiens); assay: Inhibition of human N-terminal GST-tagged ROCK2 expressed in baculovirus-infected insect cells using long S6 kinase peptide as substrate by radiometric assay in presence of [32P]ATP
valueKind: pIC50
// scale note: pIC50 = -log10(conc_M); give the bare number

Given CC[C@H](C)OC(=O)c1ccc(F)c(NC(=O)c2cccc(-c3cc(C(=O)Nc4ccncc4F)ccc3CN)c2)c1 , state its recorded pIC50.
8.26

Form field: reported pIC50 of NCc1ccc(C(=O)Nc2ccncc2F)cc1-c1cccc(NC(=O)c2ccc(C(=O)O)cc2)c1
9.00

# query: pIC50 of entry COC(=O)c1cccc(NC(=O)c2cccc(-c3cc(C(=O)Nc4ccncc4F)ccc3CN)c2)c1
8.96

Given the molecule CCCOC(=O)c1ccc(F)c(NC(=O)c2cccc(-c3cc(C(=O)Nc4ccncc4F)ccc3CN)c2)c1 , what is its reported pIC50?
8.68

Need pIC50 of CCC(C)OC(=O)c1cccc(NC(=O)c2cccc(-c3cc(C(=O)Nc4ccncc4F)ccc3CN)c2)c1 (configuration not stated) , thanks.
8.59

Please give the measured pIC50 for this molecule: NCc1ccc(C(=O)Nc2ccncc2F)cc1-c1cccc(C(=O)Nc2cccc(CC(=O)O)c2)c1
8.82

Look up pIC50 for this molecule: CC[C@@H](C)OC(=O)c1ccc(F)c(NC(=O)c2cccc(-c3cc(C(=O)Nc4ccncc4F)ccc3CN)c2)c1
8.48

GET /values?readout=pIC50&item= NCc1ccc(C(=O)Nc2ccncc2F)cc1-c1cccc(C(=O)Nc2ccc(C(=O)O)cc2)c1
8.48

Tell me the measured pIC50 of COC(=O)c1ccc(F)c(NC(=O)c2cccc(-c3cc(C(=O)Nc4ccncc4F)ccc3CN)c2)c1 , please.
8.80

I am curious: what pIC50 value has been reported for NCc1ccc(C(=O)Nc2ccncc2F)cc1-c1cccc(C(=O)Nc2cccc(C(=O)OC3CCCC3)c2F)c1 ?
8.85

Suppose we examine the molecule NCc1ccc(C(=O)Nc2ccncc2F)cc1-c1cccc(C(=O)Nc2cc(C(=O)O)ccc2F)c1 ; what pIC50 value has been reported?
8.70

Param item = CCCOC(=O)c1cccc(C(=O)Nc2cccc(-c3cc(C(=O)Nc4ccncc4F)ccc3CN)c2)c1 ; retrieve measured pIC50.
8.74

Which pIC50 reading was recorded for the molecule NCc1ccc(C(=O)Nc2ccncc2F)cc1-c1cccc(C(=O)Nc2cccc(C(=O)O)c2F)c1 ?
8.46

* * *

Assignment: determine reported half-life for the given molecules.
experiment: Half life in human plasma by LC-MS/MS analysis; assay type: ADME, cell-free

Please give the measured half-life for this molecule: CCCOC(=O)c1ccc(NC(=O)c2cccc(-c3cc(C(=O)Nc4ccncc4F)ccc3CN)c2)cc1
> 120 min

Given NCc1ccc(C(=O)Nc2ccncc2F)cc1-c1cccc(NC(=O)c2cccc(C(=O)O)c2)c1 , state its recorded half-life.
> 120 min

Name the reported half-life value associated with the molecule NCc1ccc(C(=O)Nc2ccncc2F)cc1-c1cccc(C(=O)Nc2ccc(C(=O)O)cc2)c1
> 120 min

Fill in: half-life of COC(=O)c1cccc(NC(=O)c2cccc(-c3cc(C(=O)Nc4ccncc4F)ccc3CN)c2)c1F is ___
< 5 min

Fill in: half-life of COC(=O)c1ccc(C(=O)Nc2cccc(-c3cc(C(=O)Nc4ccncc4F)ccc3CN)c2)cc1 is ___
> 120 min

For COC(=O)Cc1ccc(NC(=O)c2cccc(-c3cc(C(=O)Nc4ccncc4F)ccc3CN)c2)cc1 , what is its reported half-life?
< 5 min

Name the recorded half-life for COC(=O)Cc1cccc(NC(=O)c2cccc(-c3cc(C(=O)Nc4ccncc4F)ccc3CN)c2)c1 .
< 5 min

Consider the molecule shown here: CCCOC(=O)c1cccc(C(=O)Nc2cccc(-c3cc(C(=O)Nc4ccncc4F)ccc3CN)c2)c1 What is its recorded half-life?
< 5 min

What does the data say about its half-life? Entry: CN1CCC(OC(=O)Cc2ccc(NC(=O)c3cccc(-c4cc(C(=O)Nc5ccncc5F)ccc4CN)c3)cc2)CC1
< 5 min

* * *

assay: Half life in human plasma by LC-MS/MS analysis; type: ADME, cell-free
Record form. Attribute: half-life. Fill in for each entry.

Reported half-life, compound NCc1ccc(C(=O)Nc2ccncc2F)cc1-c1cccc(C(=O)Nc2cccc(CC(=O)O)c2)c1 : ____
> 2 h

What does the record list as half-life for NCc1ccc(C(=O)Nc2ccncc2F)cc1-c1cccc(C(=O)OCC2CCCO2)c1 (stereo not drawn) ?
< 0.0833 h

State the recorded half-life for this entry: NCc1ccc(C(=O)Nc2ccncc2F)cc1-c1cccc(C(=O)Nc2ccc(CC(=O)O)cc2)c1
> 2 h

* * *

molecular target: Rho-associated protein kinase 2 (Homo sapiens); assay: Inhibition of human N-terminal GST-tagged ROCK2 expressed in baculovirus-infected insect cells using long S6 kinase peptide as substrate by radiometric assay in presence of [32P]ATP and 200 uM ATP
Exercise: for every item that follows, state its recorded pIC50.
pIC50 here: minus log base 10 of the concentration, concentration in moles per litre.

I am curious: what pIC50 value has been reported for COC(=O)c1ccc(C(=O)Nc2cccc(-c3cc(C(=O)Nc4ccncc4F)ccc3CN)c2)cc1 ?
8.51

What value of pIC50 has been recorded for this entry: COC(=O)c1ccc(F)c(C(=O)Nc2cccc(-c3cc(C(=O)Nc4ccncc4F)ccc3CN)c2)c1
8.85

Can you share its pIC50? I mean this molecule: NCc1ccc(C(=O)Nc2ccncc2F)cc1-c1cccc(C(=O)OCC2CCCO2)c1 (stereo not drawn)
7.31

Need pIC50, item COC(=O)c1ccc(F)c(NC(=O)c2cccc(-c3cc(C(=O)Nc4ccncc4F)ccc3CN)c2)c1
7.34

What value of pIC50 has been recorded for this entry: COC(=O)c1cccc(NC(=O)c2cccc(-c3cc(C(=O)Nc4ccncc4F)ccc3CN)c2)c1
6.90

Can you share its pIC50? I mean this molecule: CC[C@H](C)OC(=O)c1ccc(F)c(NC(=O)c2cccc(-c3cc(C(=O)Nc4ccncc4F)ccc3CN)c2)c1
7.14

Could you tell me which pIC50 is on file for NCc1ccc(C(=O)Nc2ccncc2F)cc1-c1cccc(C(=O)Nc2cccc(C(=O)OC3CCCC3)c2F)c1 ?
7.39

# input molecule: NCc1ccc(C(=O)Nc2ccncc2F)cc1-c1cccc(C(=O)Nc2ccc(CC(=O)OC3CCCC3)cc2)c1 ; wanted: its pIC50
8.89

Quick one: pIC50 of CN1CCC(OC(=O)Cc2ccc(NC(=O)c3cccc(-c4cc(C(=O)Nc5ccncc5F)ccc4CN)c3)cc2)CC1 ?
8.34

Fill in: pIC50 of COC(=O)c1cccc(NC(=O)c2cccc(-c3cc(C(=O)Nc4ccncc4F)ccc3CN)c2)c1F is ___
8.06

* * *

Record form. Attribute: pIC50. Fill in for each entry.
target: Rho-associated protein kinase 2 (Homo sapiens, UniProt O75116); assay: Inhibition of human N-terminal GST-tagged ROCK2 expressed in baculovirus-infected insect cells using long S6 kinase peptide as substrate by radiometric assay in presence of [32P]ATP
Sequence (O75116 whole entry): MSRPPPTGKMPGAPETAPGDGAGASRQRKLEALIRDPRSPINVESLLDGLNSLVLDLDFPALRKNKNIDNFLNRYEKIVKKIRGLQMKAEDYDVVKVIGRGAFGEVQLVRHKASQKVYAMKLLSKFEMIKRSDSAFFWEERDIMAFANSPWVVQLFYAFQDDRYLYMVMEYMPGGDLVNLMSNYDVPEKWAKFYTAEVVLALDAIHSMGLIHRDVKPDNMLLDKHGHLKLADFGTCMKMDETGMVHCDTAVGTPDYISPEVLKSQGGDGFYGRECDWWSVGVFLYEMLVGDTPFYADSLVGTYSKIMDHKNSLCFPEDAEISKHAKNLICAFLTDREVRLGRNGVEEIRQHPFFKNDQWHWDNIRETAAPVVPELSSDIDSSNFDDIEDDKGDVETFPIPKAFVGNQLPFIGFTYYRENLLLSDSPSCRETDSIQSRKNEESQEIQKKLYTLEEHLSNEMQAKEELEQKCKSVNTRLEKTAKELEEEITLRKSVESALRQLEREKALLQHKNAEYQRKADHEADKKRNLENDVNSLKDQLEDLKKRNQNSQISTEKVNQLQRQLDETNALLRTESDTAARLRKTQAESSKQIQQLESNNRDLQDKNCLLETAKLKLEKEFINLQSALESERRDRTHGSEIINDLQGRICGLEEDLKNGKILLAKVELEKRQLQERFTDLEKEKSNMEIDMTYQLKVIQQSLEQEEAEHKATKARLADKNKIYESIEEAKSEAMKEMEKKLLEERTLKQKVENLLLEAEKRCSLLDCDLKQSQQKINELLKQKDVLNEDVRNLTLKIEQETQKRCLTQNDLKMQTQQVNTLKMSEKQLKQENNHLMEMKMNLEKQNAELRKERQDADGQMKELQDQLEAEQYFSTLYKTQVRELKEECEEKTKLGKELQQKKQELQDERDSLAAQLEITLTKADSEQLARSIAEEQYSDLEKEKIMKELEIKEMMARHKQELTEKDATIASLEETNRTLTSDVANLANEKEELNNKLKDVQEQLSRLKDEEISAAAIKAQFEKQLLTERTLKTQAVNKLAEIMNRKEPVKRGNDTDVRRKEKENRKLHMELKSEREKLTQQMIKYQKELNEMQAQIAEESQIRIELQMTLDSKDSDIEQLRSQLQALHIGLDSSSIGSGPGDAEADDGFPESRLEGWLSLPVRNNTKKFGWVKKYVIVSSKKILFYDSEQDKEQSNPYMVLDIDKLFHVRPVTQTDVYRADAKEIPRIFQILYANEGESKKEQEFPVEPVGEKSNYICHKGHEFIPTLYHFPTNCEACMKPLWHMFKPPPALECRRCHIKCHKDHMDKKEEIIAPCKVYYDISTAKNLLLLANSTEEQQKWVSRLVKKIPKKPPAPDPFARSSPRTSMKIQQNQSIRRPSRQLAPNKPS
pIC50: −log10 of the molar value.

Quick check: pIC50 on Rho-associated protein kinase 2 (Homo sapiens, UniProt O75116), item COCCOC(=O)c1ccc(F)c(C(=O)Nc2cccc(-c3cc(C(=O)Nc4ccncc4F)ccc3CN)c2)c1 ?
> 9.00

Provide the documented pIC50 with Rho-associated protein kinase 2 (Homo sapiens, UniProt O75116) as the system for NCc1ccc(C(=O)Nc2ccncc2F)cc1-c1cccc(C(=O)Nc2ccc(CC(=O)OC3CCCOC3)cc2)c1 (centres undefined)
> 9.00

Identify the measured pIC50 of COC(=O)Cc1ccc(NC(=O)c2cccc(-c3cc(C(=O)Nc4ccncc4F)ccc3CN)c2)cc1 for Rho-associated protein kinase 2 (Homo sapiens, UniProt O75116).
> 9.00

Given the entry CC[C@@H](C)OC(=O)Cc1ccc(NC(=O)c2cccc(-c3cc(C(=O)Nc4ccncc4F)ccc3CN)c2)cc1 , what pIC50 was observed with Rho-associated protein kinase 2 (Homo sapiens, UniProt O75116)?
> 9.00

Provide the documented pIC50 with Rho-associated protein kinase 2 (Homo sapiens, UniProt O75116) as the system for COC(=O)c1ccc(NC(=O)c2cccc(-c3cc(C(=O)Nc4ccncc4F)ccc3CN)c2)cc1
> 9.00

Missing value: pIC50, Rho-associated protein kinase 2 (Homo sapiens, UniProt O75116), entry CC[C@H](C)OC(=O)Cc1ccc(NC(=O)c2cccc(-c3cc(C(=O)Nc4ccncc4F)ccc3CN)c2)cc1 . Fill in?
> 9.00

Query pIC50 on Rho-associated protein kinase 2 (Homo sapiens, UniProt O75116) for CC(C)OC(=O)Cc1ccc(NC(=O)c2cccc(-c3cc(C(=O)Nc4ccncc4F)ccc3CN)c2)cc1
> 9.00

Recall the recorded pIC50 for CN1CCC(OC(=O)Cc2ccc(NC(=O)c3cccc(-c4cc(C(=O)Nc5ccncc5F)ccc4CN)c3)cc2)CC1 with Rho-associated protein kinase 2 (Homo sapiens, UniProt O75116) and state it.
> 9.00

So what pIC50 did NCc1ccc(C(=O)Nc2ccncc2F)cc1-c1cccc(NC(=O)c2cccc(C(=O)O)c2)c1 get with Rho-associated protein kinase 2 (Homo sapiens, UniProt O75116)?
> 9.00

Provide value of pIC50 for this record tested with Rho-associated protein kinase 2 (Homo sapiens, UniProt O75116): CCCOC(=O)c1ccc(NC(=O)c2cccc(-c3cc(C(=O)Nc4ccncc4F)ccc3CN)c2)cc1
> 9.00

What value of pIC50 on Rho-associated protein kinase 2 (Homo sapiens, UniProt O75116) does NCc1ccc(C(=O)Nc2ccncc2F)cc1-c1cccc(NC(=O)c2cc(C(=O)O)ccc2F)c1 have?
> 9.00

Give Rho-associated protein kinase 2 (Homo sapiens, UniProt O75116) pIC50 for NCc1ccc(C(=O)Nc2ccncc2F)cc1-c1cccc(C(=O)Nc2ccccc2)c1
> 9.00

What is its pIC50 for Rho-associated protein kinase 2 (Homo sapiens, UniProt O75116)? Entry: NCc1ccc(C(=O)Nc2ccncc2F)cc1-c1cccc(C(=O)Nc2ccc(CC(=O)OC3CCOCC3)cc2)c1
> 9.00

# returns recorded pIC50 (system: Rho-associated protein kinase 2 (Homo sapiens, UniProt O75116)) for COC(=O)c1cccc(C(=O)Nc2cccc(-c3cc(C(=O)Nc4ccncc4F)ccc3CN)c2)c1
> 9.00
